// provenance: ChEMBL document CHEMBL1138005

biological target: Carbonic anhydrase 9 (Homo sapiens)
Give measured Ki for each item. Keep answers brief.
Dear colleague, please send the value followed by its unit.

Below, 3 compounds whose answers are already recorded.
INSERT INTO results (structure, experimental_result) VALUES
  ('NS(=O)(=O)c1ccc(CNc2nc(=O)[nH]c(=O)[nH]2)cc1', '0.36 µM'),
  ('CCOc1nc(NCc2ccc(S(N)(=O)=O)cc2)nc(OCC)n1', '0.00034 µM'),
  ('NS(=O)(=O)c1ccc(Nc2nc(=O)[nH]c(=O)[nH]2)cc1', '0.142 µM');

Moving on to another compound below.
input: Param readout = Ki; param system = Carbonic anhydrase 9 (Homo sapiens); param query = COc1nc(NCCc2ccc(S(N)(=O)=O)cc2)nc(OC)n1 ; response: value
output: 0.162 µM
